Listing of entries alongside the reported koff.
Target: T1, human GITR (hGITR), soluble analyte (human, UniProt Q9Y5U5 26-162)
T1 sequence: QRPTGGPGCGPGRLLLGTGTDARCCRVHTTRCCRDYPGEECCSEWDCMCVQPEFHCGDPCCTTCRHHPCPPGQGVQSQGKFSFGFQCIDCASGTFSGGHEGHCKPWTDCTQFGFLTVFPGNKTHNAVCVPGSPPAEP
Experiment: SPR (Biacore T200), 37 C; antibody captured on anti-human Fc chip, GITR as analyte; 1:1 Langmuir fit
Protocol: The sensor chip preparation was performed at 25° C. with a running buffer of 10 mM HEPES, 150 mM NaCl, 0.05% (v/v) Tween-20, pH 7.4. […] Antibodies were captured from undiluted supernatants onto downstream flow cells (flow cells 2, 3 and 4) at a flow rate of 10 μL/min for 2 minutes. […] After the analyte injection, dissociation was monitored for 10 minutes followed by regeneration of all flow cells with three 1-minute injections of 75 mM Phosphoric Acid. […]
Please reply with the bare figure in s⁻¹ and do not write the unit itself.

Query: Please give the measured koff for this binder: h3G7 R5 (antibody, V domains shown, Only variable domains are tied to this name) VH: QVQLVQSGAEVKKPGASVKVSCKASGYTFTGATMNWVRQAPGQGLEWMGLINPYTGGIRYNQKFKGRVTMTRDTSTSTVYMELSSLRSEDTAVYYCARIGGYYDSMDYWGQGTLVTVSS VL: DIQMTQSPSSLSASVGDRVTITCRASESVEPRGINFLNWYQQKPGKAPKLLIYAASQASKGVPSRFSGSGSGTDFTLTISSLQPEDFATYYCQQALELPWTFGGGTKVEIK
Result: 0.0045

Query: Please give the measured koff for this binder: h3G7 AM (antibody, V domains shown, Whole IgG captured on an anti-human Fc chip) VH: QVQLVQSGAEVKKPGASVKVSCKASGYTFTGATMNWVRQAPGQGLEWMGLINPYNGGIRYNQKFKGRVTMTRDTSTSTVYMELSSLRSEDTAVYYCARIGGYYDSMDYWGQGTLVTVSS VL: DIQMTQSPSSLSASVGDRVTITCRASESVDPRGINFLNWYQQKPGKAPKLLIYAASNQAKGVPSRFSGSGSGTDFTLTISSLQPEDFATYYCQQALELPWTFGGGTKVEIK
Result: 0.019

Query: Please give the measured koff for this binder: h10H2 AM (antibody, V domains shown, Whole IgG captured on an anti-human Fc chip) VH: QVQLVQSGAEVKKPGSSVKVSCKASGGTFSRYWIEWVRQAPGQGLEWMGEILPGSGVTFENEKFKGRVTITADESTSTAYMELSSLRSEDTAVYYCARKGRYYAMDYWGQGTLVTVSS VL: EIVLTQSPGTLSLSPGERATLSCRASQSIGTSIHWYQQKPGQAPRLLIYYASESVSGIPDRFSGSGSGTDFTLTISRLEPEDFAVYYCQQTYSWPATFGQGTKVEIK
Result: 0.00154
